Listing of entries alongside the reported viability, T/C.
- System: 439559-082-T-J2-PDC complex spheroid growth
- measurement-notes: Anticancer human tumor 439559-082-T-J2-PDC patient-derived colon adenocarcinoma cell line growth inhibition [Asc]
- experimental-setup: second compound 1 µM; first compound 0.0316 µM; stronger effect = lower value

{"columns": ["compound", "viability, T/C [%]"],
 "data": [
  ["Cn1ncnc1[C@H]1c2n[nH]c(=O)c3cc(F)cc(c23)N[C@@H]1c1ccc(F)cc1 + CNC(C)C(=O)NC1CN(S(=O)(=O)c2cccc(S(=O)(=O)N3CCC4CCC(C(=O)NC(c5ccccc5)c5ccccc5)N4C(=O)C(NC(=O)C(C)NC)C3)c2)CCC2CCC(C(=O)NC(c3ccccc3)c3ccccc3)N2C1=O", 87],
  ["C#Cc1c(F)ccc2cc(O)cc(-c3ncc4c(N5CC6CCC(C5)N6)nc(OCC56CCCN5CC(F)C6)nc4c3F)c12 (centres undefined) + CNC(C)C(=O)NC1CN(S(=O)(=O)c2cccc(S(=O)(=O)N3CCC4CCC(C(=O)NC(c5ccccc5)c5ccccc5)N4C(=O)C(NC(=O)C(C)NC)C3)c2)CCC2CCC(C(=O)NC(c3ccccc3)c3ccccc3)N2C1=O", 66],
  ["O=C(c1cc(Cc2n[nH]c(=O)c3ccccc23)ccc1F)N1CCN(C(=O)C2CC2)CC1 + Cc1c(S(C)(=O)=O)c(-c2cc(F)cc(N3CCN(c4ccc(NS(=O)(=O)c5ccc(NC(CCN6CCC(C(=O)OCCCP(=O)(O)O)CC6)CSc6ccccc6)c(S(=O)(=O)C(F)(F)F)c5)cc4)CC3)c2)c(-c2ccc(Cl)cc2)n1C(C)C", 91.3],
  ["CCN1CCN(Cc2ccc(Nc3ncc(F)c(-c4cc(F)c5nc(C)n(C(C)C)c5c4)n3)nc2)CC1 + Cc1c(S(C)(=O)=O)c(-c2cc(F)cc(N3CCN(c4ccc(NS(=O)(=O)c5ccc(NC(CCN6CCC(C(=O)OCCCP(=O)(O)O)CC6)CSc6ccccc6)c(S(=O)(=O)C(F)(F)F)c5)cc4)CC3)c2)c(-c2ccc(Cl)cc2)n1C(C)C", 94.3]
]}

---

- System: 439559-082-T-J2-PDC complex spheroid growth
- measurement-notes: Anticancer human tumor 439559-082-T-J2-PDC cell line growth inhibition [Asc];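 further: spheroids exposed to agents for 7 days starting day 3 after seeding; percent of DMSO vehicle control viability with 100% = vehicle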
- experimental-setup: second compound 0.0949 µM; first compound 0.0316 µM; stronger effect = lower value

{"columns": ["compound", "result-units", "viability, T/C"],
 "data": [
  ["C=C(F)C(=O)N1CCN(c2nc(OCC3CCCN3C)nc3c2CCN(c2cccc4cccc(Cl)c24)C3)CC1CC#N (centres undefined) + CCN1C(C(=O)NC23CCC(C(=O)O)(CC2)CC3)C(c2cccc(Cl)c2F)C2(C(=O)Nc3cc(Cl)ccc32)C12CCCCC2", "%", 109],
  ["C#Cc1c(F)ccc2cc(O)cc(-c3ncc4c(N5CC6CCC(C5)N6)nc(OCC56CCCN5CC(F)C6)nc4c3F)c12 (centres undefined) + CCN1C(C(=O)NC23CCC(C(=O)O)(CC2)CC3)C(c2cccc(Cl)c2F)C2(C(=O)Nc3cc(Cl)ccc32)C12CCCCC2", "%", 88.8],
  ["O=C(c1ccc(F)c(F)c1Nc1ccc(I)cc1F)N1CC(O)([C@@H]2CCCCN2)C1 + CCN1C(C(=O)NC23CCC(C(=O)O)(CC2)CC3)C(c2cccc(Cl)c2F)C2(C(=O)Nc3cc(Cl)ccc32)C12CCCCC2", "%", 84.8],
  ["C=CC(=O)N1CCN(c2nc(=O)n(-c3c(C)ccnc3C(C)C)c3nc(-c4c(O)cccc4F)c(F)cc23)C(C)C1 (centres undefined) + CCN1C(C(=O)NC23CCC(C(=O)O)(CC2)CC3)C(c2cccc(Cl)c2F)C2(C(=O)Nc3cc(Cl)ccc32)C12CCCCC2", "%", 103]
]}

Source listed as PubChem BioAssay AID1963423.
